Hello, the source for this data is PubChem BioAssay (NCI), in case you need it.

Tested on: HCT-15 colon
Experiment Description: NCI-60 one-dose screen, 48 h
Condition Notes: 10 µM unless noted
Description: Growth inhibition of the HCT-15 human tumor cell line is measured as a screen for anti-cancer activity. Cells are grown in 96 well plates and exposed to the test compound for 48 hours. Compounds are tested at a single concentration, which is 10^-5 M for most compounds. The reported endpoint is percent growth (GI% or GIPRCNT), where numbers from 0 - 100% represent growth inhibition, and numbers from -100% - 0 represent cell death. For example, a value of 40 represents 60% growth inhibition. […]
About 83,000 compounds went through this panel and 20% of them were active in at least one assay; those are over-represented in the sample as a whole. Calls of active or inactive are those of the source. How the source made its calls: active means growth percent below 10; inactive means the rest.
Would you mind answering with one of these outcomes? 1 (yes) = active, 0 (no) = inactive

[O-][n+]1c2ccccc2[n+]([O-])c2c3ccccc3[nH]c21: 0 (no)
CCCC1CCC(O)(C(C)(O)C(=O)NC2C(=O)N3NCCCC3C(=O)N(O)C(C)C(=O)N3NCCCC3C(=O)N3NCC(O)CC3C(=O)NC(C)C(=O)OC2C(C)C)OC1CC (centres undefined): 1 (yes)
COc1cccc(-c2nn(-c3ccccc3)cc2-c2ccnc(N3CCOCC3)c2)c1: 0 (no)
C/C=C(\C)C(=O)N[C@H]1[C@@H](OC(C)=O)C[C@]2(C)C3CC[C@@]4(C)C(CC[C@@H]4C(C)N(C)C)C3CCC2[C@H]1O (some centres undefined): 1 (yes)
Cc1c(C(=O)/C=C/Nc2c(Cl)cc(S(N)(=O)=O)cc2Cl)sc2nc3ccccc3n12: 0 (no)

Enquiry: # lookup: test call for "O=C(Nc1ccc(OS(=O)(=O)c2ccc(F)cc2)cc1)c1ccc(Cl)cc1"
Return: 0 (no)

Enquiry: # lookup: test call for "C/C(=C\C(=O)c1ccc(Cl)cc1)c1ccc(Cl)cc1"
Return: 0 (no)

Enquiry: # lookup: test call for "COC(=O)c1ccc2[nH]c(O)c(C(=Nc3ccc(N(C)C(=O)CN4CCN(C)CC4)cc3)c3ccccc3)c2c1"
Return: 0 (no)

Enquiry: # lookup: test call for "O=C(Nc1ccc(Cl)cc1F)c1cc(Cl)ccc1O"
Return: 1 (yes)

###

In this section we review reported growth values for a set of compounds.
Test system: UACC-257 melanoma
Experiment Description: NCI-60 one-dose screen, 48 h (100 = growth as untreated, 0 = no growth, -100 = all killed)
Condition Notes: 10 µM unless noted
Compounds without any hit were thinned out: in the full panel of roughly 83,000, 20% have a hit.
Express your answer in %, writing the number without its unit.

Some compounds with recorded growth:
O=C(Nc1ccc(Br)cc1F)c1cc(Br)ccc1O: -17.2
CN(C)CCN1CCN(c2ncccc2C2Nc3ccccc3-n3cccc32)CC1 (stereo not given): 101

Enquiry: Tell me the measured growth of "Cc1ccc(-c2cnc3sc(C(=O)NCCc4ccccc4)c(C)n23)cc1" , please.
Return: 120

Enquiry: Tell me the measured growth of "COc1ccc(OC)c(/C=C/c2nnc(Nc3ccccc3)o2)c1" , please.
Return: 117

Enquiry: Tell me the measured growth of "O=C1c2cccc3cccc(c23)C(=O)N1N1C(=O)c2cccc3c(NC4CCCCC4)ccc(c23)C1=O" , please.
Return: 100

Enquiry: Tell me the measured growth of "O=C1COCCN1c1ccc(NCc2cn(C(=O)c3ccc(Cl)cc3)c3ccccc23)cc1" , please.
Return: 33.6
